Quick reference for Q (IC50[Substanz] / IC50[EMD 271293]) among some compounds
# assay.system: αvβ6 Rezeptor (Homo sapiens, UniProt P06756+P18564)
# Construct: Die Immobilisierung von löslichem αvβ6 Rezeptor auf Microtiterplatten
# Sequence (P06756 31-992 limits assumed): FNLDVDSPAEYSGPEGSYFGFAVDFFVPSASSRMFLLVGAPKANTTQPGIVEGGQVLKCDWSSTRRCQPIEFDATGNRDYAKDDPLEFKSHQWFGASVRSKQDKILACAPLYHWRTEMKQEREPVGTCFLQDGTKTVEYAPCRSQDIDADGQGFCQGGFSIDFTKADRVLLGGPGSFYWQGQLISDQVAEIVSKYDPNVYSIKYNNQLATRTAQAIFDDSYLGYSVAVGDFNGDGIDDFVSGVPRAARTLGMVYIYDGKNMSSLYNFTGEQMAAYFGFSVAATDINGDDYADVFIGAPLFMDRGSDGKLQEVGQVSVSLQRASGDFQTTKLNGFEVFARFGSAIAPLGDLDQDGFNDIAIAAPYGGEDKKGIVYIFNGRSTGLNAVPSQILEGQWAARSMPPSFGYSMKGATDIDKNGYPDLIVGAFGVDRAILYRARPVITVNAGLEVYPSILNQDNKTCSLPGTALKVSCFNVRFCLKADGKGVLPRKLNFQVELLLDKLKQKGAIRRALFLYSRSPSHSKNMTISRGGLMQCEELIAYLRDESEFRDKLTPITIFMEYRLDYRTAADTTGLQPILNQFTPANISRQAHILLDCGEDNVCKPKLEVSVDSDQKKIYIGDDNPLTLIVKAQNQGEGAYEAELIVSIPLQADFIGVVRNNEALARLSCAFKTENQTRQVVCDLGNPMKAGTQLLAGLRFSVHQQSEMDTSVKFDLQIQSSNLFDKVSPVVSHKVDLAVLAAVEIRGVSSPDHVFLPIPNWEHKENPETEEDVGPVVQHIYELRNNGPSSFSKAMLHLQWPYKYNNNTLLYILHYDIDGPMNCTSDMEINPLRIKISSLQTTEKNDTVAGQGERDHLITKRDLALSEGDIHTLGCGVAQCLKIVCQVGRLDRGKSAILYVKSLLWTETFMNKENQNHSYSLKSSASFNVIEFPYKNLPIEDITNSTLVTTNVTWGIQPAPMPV
# Sequence (P18564 22-709 limits assumed): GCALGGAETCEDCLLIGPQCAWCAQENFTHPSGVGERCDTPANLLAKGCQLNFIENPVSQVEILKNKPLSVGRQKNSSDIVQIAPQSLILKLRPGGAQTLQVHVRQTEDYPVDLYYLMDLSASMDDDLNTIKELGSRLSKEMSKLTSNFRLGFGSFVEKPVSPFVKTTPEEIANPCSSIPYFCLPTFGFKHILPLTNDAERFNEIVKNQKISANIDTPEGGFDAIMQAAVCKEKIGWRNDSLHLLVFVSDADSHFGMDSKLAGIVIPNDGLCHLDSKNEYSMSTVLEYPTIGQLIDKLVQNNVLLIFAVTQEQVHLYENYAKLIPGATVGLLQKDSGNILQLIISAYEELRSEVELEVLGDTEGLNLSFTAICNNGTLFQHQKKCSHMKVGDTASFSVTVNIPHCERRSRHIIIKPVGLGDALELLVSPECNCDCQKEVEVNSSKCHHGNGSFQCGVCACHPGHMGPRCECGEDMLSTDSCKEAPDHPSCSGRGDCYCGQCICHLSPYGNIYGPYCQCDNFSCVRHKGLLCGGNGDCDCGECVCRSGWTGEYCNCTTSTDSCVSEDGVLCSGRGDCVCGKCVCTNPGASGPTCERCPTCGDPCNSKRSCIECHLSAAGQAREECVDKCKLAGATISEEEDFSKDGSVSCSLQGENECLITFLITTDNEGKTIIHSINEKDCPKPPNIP
# assay.procedure: αvβ6 / fibronectin receptor binding test (competition of peptide with biotinylated fibronectin on immobilised integrin, ELISA read-out)
# test.conditions: peptides Cyclo-(Arg-Gly-Asp-Leu-D-Asp-Ala-Leu-Arg-R^1), labelled by R^1; ratio to comparison compound EMD 271293
Non-standard residues stand in square brackets, D forms with d. Residues, ends and D or L forms follow the SMILES beside them.
property.label: Q (IC50[Substanz] / IC50[EMD 271293])

* CC(C)C[C@@H]1NC(=O)[C@H](C)NC(=O)[C@@H](CC(=O)O)NC(=O)[C@H](CC(C)C)NC(=O)[C@H](CC(=O)O)NC(=O)CNC(=O)[C@H](CCCNC(=N)N)NC(=O)CNC(=O)CNC(=O)CNC(=O)CNC(=O)[C@H](CCCNC(=N)N)NC1=O [EMD 272961, cyclo-(RGDLdALRGGGG)] (cyclo(RGDL[dD]ALRGGGG)) | 0,033
* CC(C)C[C@@H]1NC(=O)[C@H](C)NC(=O)[C@@H](CC(=O)O)NC(=O)[C@H](CC(C)C)NC(=O)[C@H](CC(=O)O)NC(=O)CNC(=O)[C@H](CCCNC(=N)N)NC(=O)CNC(=O)CNC(=O)[C@H](CCCNC(=N)N)NC1=O [EMD 271592, cyclo-(RGDLdALRGG)] (cyclo(RGDL[dD]ALRGG)) | 0,05
